Target: T1, activated MMP13 (species not stated) (Homo sapiens (Human), UniProt P45452 104-471, Biotinylated in the TIMP-2 competition ELISA (sites not given). Activated form: pro-peptide removed.)
T1 construct: campaign 4 ELISA; Probably human
Assay: TIMP-2 competition ELISA; Nanobody pre-incubated with 1.26 nM activated MMP13-biotin, binding to captured TIMP-2
pIC50: −log10 of the molar value.
Reported pIC50 by item:
propertyLabel: pIC50

| binder | resultValue |
| --- | --- |
| C0101PMP059F06 (VHH, Profile 2 Nanobody) VHH: EVQLVESEGGTVEPGESLRLACAAPGPGIRTNFMAWYRQAPEKEREMVASISRDGSTHYADSVKGRFTISSDNATSTFYLQMNSLQVEDTAVYYCATDPHILHNDRAGAFLVEDYDHWGQGTQVTVSS | 7.29 |
| C0101PMP062C02 (VHH, Profile 2 Nanobody; also called C0101062C02) VHH: EVQLVESGGALVRPGGSLRLSCAASGFAFSAAYMSWVRQAPGRGLEWVSSISDDGSKTYYADSVKGRFTISRDNAKNTVYLQMNNLKPDDTAVYYCNTGYGATTTRPGRYWGQGTQVTVSS | 9.05 |
| C0101PMP517A01 (VHH, Profile 2 Nanobody; also called C0101517A01; C010100087 (parental)) VHH: DVQLVESGGGLVQPGGSLRLSCAASGRTFSSYAMGWFRQAPGKEREFVAAISWSGGSTYYADSVKGRFTISRDNSKNTVYLQMNSLRPEDTAVYYCTAALAVYGPNRYRYGPVGEYNYWGQGTLVTVSS | 8.59 |
| C0101PMP525C04 (VHH, Profile 2 Nanobody) VHH: DVQLVESGGGLVQPGGSLRLSCAGSGSIFSGNAMGWYRQAPGKQRELVAAITSGGVTNYADSVKGRFTISRDNSKNTVYLQMNSLRPEDTAVYYCAADIRYPTGLVGDYWGQGTLVTVSS | 7.44 |
